Target: T1, human CEACAM6 (human, UniProt P40199 35-320)
T1 construct: whole, on cells; also called CHO-CEACAM6
T1 sequence (looked up): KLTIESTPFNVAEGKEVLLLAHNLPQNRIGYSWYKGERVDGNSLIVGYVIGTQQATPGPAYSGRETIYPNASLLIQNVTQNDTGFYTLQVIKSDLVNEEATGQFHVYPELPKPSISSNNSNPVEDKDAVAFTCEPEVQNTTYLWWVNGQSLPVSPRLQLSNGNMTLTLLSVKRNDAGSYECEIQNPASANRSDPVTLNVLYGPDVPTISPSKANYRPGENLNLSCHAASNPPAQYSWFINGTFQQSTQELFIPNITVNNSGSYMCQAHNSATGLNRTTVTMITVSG
Experiment: FACS on CHO cells overexpressing human CEACAM6
parameter-measured: binding result

For P1AI5031 (antibody, human IgG1, V domains shown, also called 24_A55M) VH: EVQLVESGGGLVQPGGSLRLSCAASGFNIKDTYMHWVRQAPGKGLEWVGRIDPANGNSKYADSVKGRFTISADTSKNTAYLQMNSLRAEDTAVYYCAPFGYYVSDYAMAYWGQGTTVTVSS VL: EIVLTQSPATLSLSPGERATLSCRAGESVDIFGVGFLHWYQQKPGQAPRLLIYRGSNRMTGIPARFSGSGSGTDFTLTISSLEPEDFAVYYCQQTNEDPYTFGQGTKLEIK , what is its reported binding result?
no binding

Now consider P1AI5014 (antibody, human IgG1, V domains shown) VH: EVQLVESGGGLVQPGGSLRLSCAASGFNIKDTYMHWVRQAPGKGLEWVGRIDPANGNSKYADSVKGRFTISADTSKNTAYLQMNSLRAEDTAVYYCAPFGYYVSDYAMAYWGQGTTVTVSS VL: EIVLTQSPATLSLSPGERATLSCRAGESVDIFGVGFLHWYQQKPGQAPRLLIYRGSNRATGIPARFSGSGSGTDFTLTISSLEPEDFAVYYCQQTNEDPYTFGQGTKLEIK .
no binding

How about this binder: P1AI5017 (antibody, human IgG1, V domains shown) VH: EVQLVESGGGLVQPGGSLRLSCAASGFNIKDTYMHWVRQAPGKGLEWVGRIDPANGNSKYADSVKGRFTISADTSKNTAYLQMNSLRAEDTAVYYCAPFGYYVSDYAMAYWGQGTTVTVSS VL: EIVLTQSPATLSLSPGERATLSCRAGESVDIFGVGFLHWYQQKPGQAPRLLIYRGSNRATGIPARFSGSGSGTDFTLTISSLEPEDFAVYYCQQTSEYPYTFGQGTKLEIK
no binding
